- TARGET UNDER TEST: T1, Pfs230 D1 (aa 587–731) (Plasmodium falciparum, UniProt P68874 587-731)
- T1 chain: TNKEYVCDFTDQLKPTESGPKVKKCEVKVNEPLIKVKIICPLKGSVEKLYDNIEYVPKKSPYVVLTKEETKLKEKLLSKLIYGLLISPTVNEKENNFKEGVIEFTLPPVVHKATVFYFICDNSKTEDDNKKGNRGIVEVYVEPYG
- ASSAY NAME: BLI; representative curve
Each entry below carries its reported pKd.
Note: pKd values are expressed as the negative base-10 logarithm of concentration in M.

Before answering, review these 3 worked examples.
BINDER: nanobody G2 (VHH) VHH: QVQLQESGGGLVQAGGSLRLSCAASGRTFSNYFMGWFRQAPGKEREFVAAVSWSGGSTYYADSVKGRLTISRDNAKNTVYLQMNSLKPEDTAVYYCAAGERYFPMEPRRGYDYWGQGTQVTVSS
EXPERIMENTAL VALUE: 9.44
--
BINDER: nanobody F10 (VHH) VHH: QVQLQESGGGLVQAGGSLRLSCAASGRTFSDYFMGWFRQAPGKEREFVAAVSWSGGSTYYADSVKGRFTISRDNAKNTVFLQMNSLKPEDTAVYYCAGGGSYYPMSPYDGMDYWGKGTQVTVSS
EXPERIMENTAL VALUE: 9.59
--
BINDER: nanobody A11 (VHH) VHH: QVQLQESGGGLVQPGESLRLSCAASGRTSSSYAMGWFRQAPGKEREFVASISWSGGSTYYADSVKGRFTLSRDNAKNTVYLQMNSLKPEDTAVYYCAADGIFYSDYPLSVDDFHSWGQGTQVTVSS
EXPERIMENTAL VALUE: 8.83

*Q* pKd for nanobody D6 (VHH) VHH: QVQLQESGGGLVQAGDSLRLSCAASGRTFSSYFMGWFRQAPGKEREFVAAISWSGGSTYYADSVKGRFTISRDNVKNTVYLQMNSLEPEDAAVYYCAGGGSYYPMSPRNGMDYWGKGTQVTVSS ?
*A* 9.10
